- System: NCI-H226 lung
- EXPERIMENT SUMMARY: NCI-60 one-dose screen, 48 h (100 = growth as untreated, 0 = no growth, -100 = all killed)
- CONDITION LABEL: 10 µM
About 83,000 compounds went through this panel and 20% of them were active in at least one assay; those are over-represented in the sample as a whole.
So basically: is growth under 90%? Then true. Not under? Then false.

CCn1c2ccc(O)cc2c2c(C)c3c[n+](C)ccc3c(C)c21: true
Cc1c2cnccc2c(C)c2c1oc1ccccc12: true
COc1ccc2nc3cc(Cl)ccc3c(NCCCNCCO)c2c1: true
Nc1nc(N)c(N)c(Nc2ccc(CCO)cc2)n1: false
Cc1cc(NC(=O)c2ccc(C)c(Nc3nccc(-c4cccnc4)n3)c2)cc(-n2cnc(C)c2)c1: true

Incoming: State whether 90% exceeds growth recorded for Cc1ccc(C(=O)C2C(=O)C3CCC2C3)cc1 (stereo not drawn) .
Outgoing: false

Incoming: Determine whether this molecule shows growth lower than 90% (ties excluded): O=C(Nc1cc([N+](=O)[O-])c2[nH]c(=O)c3ccccc3c2c1)C(F)(F)F
Outgoing: false

Incoming: Threshold test, growth < 90%: O=c1cn[nH]c2ccc(Br)cc12
Outgoing: false

Incoming: Is it true that growth reported for COc1ccc(C(=O)N/N=C/c2cc(C(F)(F)F)ccc2Cl)cc1 is less than 90%?
Outgoing: true

Source of measurements: PubChem BioAssay (NCI)
